- System: SAUR 9218
- Assay overview: MIC Test Method, standard agar dilution
- Assay type: cell-based
- Condition description: agar dilution, Mueller Hinton agar, incubated overnight at 35° C.; lowest concentration that inhibits visible growth; read-out: SAUR 9218 MIC
Readout type: MIC (µg/mL)
Numeric only. Scale: µg/mL

Some solved entries appear below for comparison.
N#Cc1ccc(NC(=O)c2cc3ccccc3n2Cc2ccccc2)c(C(=O)O)c1 8
CCCCN(CC)S(=O)(=O)c1cc(C(=O)Nc2ccc(C#N)cc2C(=O)O)sc1C 8

-- ask Fill blank: measured MIC of the compound CCOc1nc(SCc2ccccc2)ncc1C(=O)Nc1ccc(C#N)cc1C(=O)O is ____.
-- reply 8
